# Tested system: Beta-secretase 1 (Homo sapiens, UniProt P56817)
# Sequence (P56817 whole entry): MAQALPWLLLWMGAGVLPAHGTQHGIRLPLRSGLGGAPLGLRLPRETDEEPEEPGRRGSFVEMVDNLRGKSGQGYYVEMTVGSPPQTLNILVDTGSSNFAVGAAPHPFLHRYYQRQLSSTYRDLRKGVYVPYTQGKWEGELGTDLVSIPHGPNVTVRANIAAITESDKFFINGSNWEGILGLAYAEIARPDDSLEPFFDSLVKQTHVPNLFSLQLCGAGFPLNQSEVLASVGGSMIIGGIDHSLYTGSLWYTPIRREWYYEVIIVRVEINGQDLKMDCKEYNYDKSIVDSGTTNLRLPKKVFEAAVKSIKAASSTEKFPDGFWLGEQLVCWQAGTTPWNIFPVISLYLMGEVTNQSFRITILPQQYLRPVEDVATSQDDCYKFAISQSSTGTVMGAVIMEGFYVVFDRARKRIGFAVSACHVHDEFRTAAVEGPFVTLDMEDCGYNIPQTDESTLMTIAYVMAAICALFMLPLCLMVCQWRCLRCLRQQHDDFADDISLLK
# Assay details: Inhibition of recombinant human BACE1 assessed as dissociation constant of enzyme-substrate-inhibitor complex using Rh-EVNLDAEFK as substrate by Dixon and Cornish-Bowden plots analysis
Item-by-item account of Ki
Give the value, in units of µM, as a plain number.

These solved cases illustrate the format of a correct answer.
Quick one: Ki of CC(C)=CCC/C(C)=C/COc1c2occc2cc2ccc(=O)oc12 ?
61.9

Name the recorded Ki for CC(C)=CCC/C(C)=C/COc1c2ccoc2cc2oc(=O)ccc12 .
0.7

---
# query: Ki of entry COc1c2occc2c(OC/C=C(\C)CCC=C(C)C)c2ccc(=O)oc12
13.7

* * *

# Tested system: Beta-secretase 1 (Homo sapiens)
# Assay details: Inhibition of recombinant human BACE1 assessed as dissociation constant of enzyme-inhibitor complex using Rh-EVNLDAEFK as substrate by Dixon and Cornish-Bowden plots analysis
Measured attribute: pKi
# log scale: pKi equals minus log10 of the concentration in mol/L

What value of measured pKi is listed for CC(C)=CCC/C(C)=C/COc1c2occc2cc2ccc(=O)oc12 ?
4.21

Using the record for CC(C)=CCC/C(C)=C/COc1c2ccoc2cc2oc(=O)ccc12 [BERGAMOTTIN] , report its pKi.
4.46

Now take the following compound into account.
Request the reported pKi associated with COc1c2occc2c(OC/C=C(\C)CCC=C(C)C)c2ccc(=O)oc12
3.99

* * *

# Tested system: Beta-secretase 1 (Homo sapiens)
# Assay details: Inhibition of recombinant human BACE1 using Rh-EVNLDAEFK as substrate after 60 mins by fluorescence quenching assay
Measured attribute: pIC50
Quick note: pIC50 means taking -log10 of the concentration in moles per liter.

Which pIC50 reading was recorded for the compound COc1c2ccoc2c(OCC=C(C)C)c2oc(=O)ccc12 ?
3.84

Below: the item to evaluate.
Form field: reported pIC50 of COc1c2ccoc2c(OC[C@H]2OC2(C)C)c2oc(=O)ccc12
3.98

* * *

# Tested system: Beta-secretase 1 (Homo sapiens)
# Assay details: Inhibition of recombinant human BACE1 using Rh-EVNLDAEFK as substrate after 60 mins by fluorescence quenching assay
Measured attribute: IC50

As a guide, the following entries are already answered.
Provide the documented IC50 with Beta-secretase 1 (Homo sapiens) as the system for O=c1ccc2ccc(O)cc2o1
> 500 µM

Form entry - test system: Beta-secretase 1 (Homo sapiens); read-out: IC50; molecule: COc1ccc2ccc(=O)oc2c1
> 500 µM

More entries:
# get_value(readout= IC50, system= Beta-secretase 1 (Homo sapiens)) for CC(C)(O)[C@H](O)COc1c2ccoc2cc2oc(=O)ccc12 [OXYPEUCEDANIN HYDRATE]
> 500 µM
